All figures here come from the supplement of paper PMC3334620.

# TARGET_ENTITY: Yap3 (UniProt P38749)
# Sequence: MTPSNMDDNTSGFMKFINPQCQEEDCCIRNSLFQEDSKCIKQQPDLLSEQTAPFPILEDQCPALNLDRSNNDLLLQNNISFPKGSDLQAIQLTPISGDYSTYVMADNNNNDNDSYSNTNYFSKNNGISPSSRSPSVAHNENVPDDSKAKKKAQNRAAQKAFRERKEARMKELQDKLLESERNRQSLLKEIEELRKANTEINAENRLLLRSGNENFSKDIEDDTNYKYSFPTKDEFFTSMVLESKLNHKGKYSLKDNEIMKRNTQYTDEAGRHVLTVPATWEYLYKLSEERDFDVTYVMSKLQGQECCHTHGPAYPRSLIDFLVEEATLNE
# TEST_DESCRIPTION: PBM E-score (8-mer binding enrichment) (E-score (-0.5 to 0.5)); higher = stronger / more preferred TF binding
# SETUP_CONDITIONS: protein concentration: 100 nM; construct: GST-full length
Whole data set: some 33,000 sequences, median “E-score (-0.5 to 0.5)” near -0.0034, cut for the highest 2% near 0.25. What follows is part of a selection rich in the highest values, with near analogues and random picks from the rest.
QUANTITY_KIND: PBM E-score
Simply state the number, no unit and no words.

Value of measured PBM E-score for the entry GCGTAAAA : 0.231

Value of measured PBM E-score for the entry TCAGCGCA : -0.216

Value of measured PBM E-score for the entry GACTGAAA : 0.0541

Value of measured PBM E-score for the entry ACGTAACG : 0.208

Value of measured PBM E-score for the entry ATAATTAG : 0.347
